# TGT: T1, IL-18 receptor (IL-18Rα and IL-18Rβ) (UniProt Q13478 19-541; O95256 20-599, limits assumed)
# T1 sequence (looked up) 1: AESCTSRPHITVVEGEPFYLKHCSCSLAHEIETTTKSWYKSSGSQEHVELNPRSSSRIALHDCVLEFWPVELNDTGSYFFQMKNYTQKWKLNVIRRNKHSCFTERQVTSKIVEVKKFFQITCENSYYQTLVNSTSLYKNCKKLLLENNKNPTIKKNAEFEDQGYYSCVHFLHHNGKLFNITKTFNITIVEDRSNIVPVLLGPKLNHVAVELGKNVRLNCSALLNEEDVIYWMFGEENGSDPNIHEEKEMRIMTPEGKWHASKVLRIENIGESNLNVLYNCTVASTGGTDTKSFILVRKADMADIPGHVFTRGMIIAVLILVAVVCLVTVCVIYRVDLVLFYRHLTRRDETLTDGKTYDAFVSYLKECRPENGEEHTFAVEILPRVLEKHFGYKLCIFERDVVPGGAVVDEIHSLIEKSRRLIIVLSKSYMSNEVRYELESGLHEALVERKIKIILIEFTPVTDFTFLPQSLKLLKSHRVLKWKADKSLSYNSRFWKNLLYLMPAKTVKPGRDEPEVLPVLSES
# T1 sequence (looked up) 2: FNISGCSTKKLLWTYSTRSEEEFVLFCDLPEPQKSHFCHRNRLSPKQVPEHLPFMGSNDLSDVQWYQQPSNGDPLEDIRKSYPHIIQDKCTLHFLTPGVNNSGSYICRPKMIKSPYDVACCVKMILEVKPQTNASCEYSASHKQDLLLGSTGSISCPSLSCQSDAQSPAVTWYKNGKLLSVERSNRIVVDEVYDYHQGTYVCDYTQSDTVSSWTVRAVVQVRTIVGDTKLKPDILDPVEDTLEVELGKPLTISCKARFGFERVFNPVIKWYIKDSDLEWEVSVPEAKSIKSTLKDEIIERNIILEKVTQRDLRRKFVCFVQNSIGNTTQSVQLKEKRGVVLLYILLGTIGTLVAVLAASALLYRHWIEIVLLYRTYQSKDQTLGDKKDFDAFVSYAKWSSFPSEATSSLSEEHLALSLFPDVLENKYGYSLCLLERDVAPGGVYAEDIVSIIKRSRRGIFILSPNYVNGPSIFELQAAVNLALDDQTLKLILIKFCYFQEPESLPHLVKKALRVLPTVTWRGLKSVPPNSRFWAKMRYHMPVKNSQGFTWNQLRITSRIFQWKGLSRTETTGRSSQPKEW
# PROTOCOL_NOTES: cell-based or functional assay
READOUT_LABEL: EC50 (pM) - BP, HEK-blue re-screening
Number only, in pM; omit the unit.

Task item: Can you look up the measured EC50 (pM) - BP, HEK-blue re-screening of IL-18 variant G3D, E6G, K53G, D54A, T63S, N91Y, R104Q (ligand) YFDKLGSKLSVIRNLNDQVLFIDQGNRPLFEDMTDSDMRDNAPRTIFIISMYGASQPRGMAVSISVKSEKISTLSSENKIISFKEMNPPDYIKDTKSDIIFFQQSVPGHDNKMQFESSSYEGYFLASEKERDLFKLILKKEDELGDRSIMFTVQNED for me?
Reply: 2.62

Task item: I'd like to know its EC50 (pM) - BP, HEK-blue re-screening. The binder in question is IL-18 variant G3L, E6Y, D54T, T63S, N91Y, R104Q (ligand) YFLKLYSKLSVIRNLNDQVLFIDQGNRPLFEDMTDSDMRDNAPRTIFIISMYKTSQPRGMAVSISVKSEKISTLSSENKIISFKEMNPPDYIKDTKSDIIFFQQSVPGHDNKMQFESSSYEGYFLASEKERDLFKLILKKEDELGDRSIMFTVQNED
Reply: 0.03

Task item: Endpoint output: EC50 (pM) - BP, HEK-blue re-screening of IL-18 variant G3P, E6K, D54Y, S55P, T63S, N91S, R104Q, Q154R (ligand) YFPKLKSKLSVIRNLNDQVLFIDQGNRPLFEDMTDSDMRDNAPRTIFIISMYKYPQPRGMAVSISVKSEKISTLSSENKIISFKEMNPPDSIKDTKSDIIFFQQSVPGHDNKMQFESSSYEGYFLASEKERDLFKLILKKEDELGDRSIMFTVRNED . Value?
Reply: 1.09

Data origin, for the record: patent US20240182536A1
